# ASSAYED SYSTEM: Dual specificity protein phosphatase 6 (Homo sapiens)
# Sequence (Q16828 whole entry): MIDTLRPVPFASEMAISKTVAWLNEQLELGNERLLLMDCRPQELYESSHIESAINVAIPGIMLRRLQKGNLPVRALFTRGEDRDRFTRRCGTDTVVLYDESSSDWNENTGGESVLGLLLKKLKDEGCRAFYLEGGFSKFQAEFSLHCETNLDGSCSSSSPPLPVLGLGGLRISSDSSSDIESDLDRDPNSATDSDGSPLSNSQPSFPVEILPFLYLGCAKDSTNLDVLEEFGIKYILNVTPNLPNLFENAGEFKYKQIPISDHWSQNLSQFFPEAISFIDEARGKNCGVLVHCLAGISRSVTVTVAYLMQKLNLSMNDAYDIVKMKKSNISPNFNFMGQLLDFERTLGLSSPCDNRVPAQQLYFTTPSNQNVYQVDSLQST
# EXPERIMENT SUMMARY: Inhibition of Myc-tagged human Dusp6 expressed in TPA-induced human HeLa cells assessed as decrease in dephosphorylation of pERK measured by immunostaining
pIC50: −log10 of the molar value.

COMPOUND | pIC50
O=C1/C(=C/c2ccccc2)C(NC2CCCCC2)c2ccccc21 (stereo unspecified) | 4.91

Each recorded value in this set is attributed to ChEMBL document CHEMBL1240345.
